The reported numbers originate from patent US20100120789A1.

Measurement kind: melting point

# annotated cases, reported melting point shown
- Compound: "O=C(CC12CC3CC(CC(C3)C1)C2)NCc1ccc(-c2ccccn2)s1"
  melting point: "187 to 188 °C"
- Compound: "Cc1ccc(CNC(=O)C2CCN(C(=O)C34CC5CC(CC(C5)C3)C4)CC2)cc1"
  melting point: "155.5 to 157 °C"
- Compound: "Cc1nc2c(NC(=O)C34CC5CC(CC(C5)C3)C4)c(C)ccc2s1"
  melting point: "183.5 to 185 °C"
- Compound: "CN(C)C(=O)c1ccc(CN(C)C(=O)C23CC4CC(CC(C4)C2)C3)s1"
  melting point: "145 to 146 °C"

Please look at the following compound next.
melting point for O=C(C[S+]([O-])Cc1ccco1)C12CC3CC(CC(C3)C1)C2 (centres unmarked) ? 75 to 79 °C

====

Recorded melting point values for a group of molecules are listed next.

Here are 9 molecules together with their reported answers.
- Molecule: "Cc1c(C(=O)CS(=O)(=O)Cc2ccc(Cl)cc2)sc2ccc(Cl)cc12 [STX2296]"
  Result: "204.5 to 205.5 °C"
- Molecule: "O=C(NCc1ccco1)c1ccc(OCC(=O)C23CC4CC(CC(C4)C2)C3)cc1"
  Result: "162.2 °C"
- Molecule: "O=C(O)c1cccc(OCC(=O)C23CC4CC(CC(C4)C2)C3)c1 [STX2361]"
  Result: "156.2 °C"
- Molecule: "Cc1ccc(CNC(=O)CC23CC4CC(CC(C4)C2)C3)cc1"
  Result: "139 to 142 °C"
- Molecule: "O=C(CC12CC3CC(CC(C3)C1)C2)N1CCN(c2ccccn2)CC1"
  Result: "134 to 136 °C"
- Molecule: "O=C(NCc1cccc([N+](=O)[O-])c1)C12CC3CC(CC(C3)C1)C2 [STX2411]"
  Result: "145.5 to 147 °C"
- Molecule: "Cc1cccc(CN2CCN(C(=O)CC34CC5CC(CC(C5)C3)C4)CC2)c1 [STX2403]"
  Result: "86 to 88 °C"
- Molecule: "CC(C)(C)C(=O)NCc1cccs1 [STX1673]"
  Result: "64 to 65 °C"
- Molecule: "CN(CCc1ccccn1)C(=O)C12CC3CC(CC(C3)C1)C2 [STX1887]"
  Result: "64 to 65 °C"

# input molecule: CCCc1ccc(S(=O)(=O)NC23CC4CC(CC(C4)C2)C3)cc1 [STX1341] ; wanted: its melting point 178 to 178.5 °C

====

melting point: recorded values

Check out these entries, answers already filled in.
- Compound: "COc1ccc(OCc2cn(C34CC5CC(CC(C5)C3)C4)nn2)cc1OC [STX1893]"
  Result: "108 to 112 °C"
- Compound: "CN(CCc1cccs1)C(=O)C12CC3CC(CC(C3)C1)C2 [STX1910]"
  Result: "95 to 99 °C"
- Compound: "CN(Cc1ccc(Cl)cc1)C(=O)CC12CC3CC(CC(C3)C1)C2"
  Result: "75 to 76 °C"
- Compound: "Cc1cccc(CS(=O)(=O)CC(=O)C23CC4CC(CC(C4)C2)C3)c1"
  Result: "132.8 °C"

Any idea what melting point was measured for O=C(Nc1cccnc1)C12CC3CC(CC(C3)C1)C2 [STX2399] ? 129 to 131 °C

State the recorded melting point for this entry: [O-][S+](Cc1cn(C23CC4CC(CC(C4)C2)C3)nn1)c1cc(Cl)ccc1Cl (stereo not drawn) [STX1892] 125 to 128 °C

Returns the measured melting point for the input compound. Input: CCN(Cc1cccs1)C(=O)C12CC3CC(CC(C3)C1)C2 103 to 105 °C

What value of melting point has been recorded for this entry: O=S(=O)(NC12CC3CC(CC(C3)C1)C2)c1cc(Cl)ccc1Cl [STX1342] 189 to 190 °C

Tell me the measured melting point of CN(Cc1ccc(Cl)s1)C(=O)CC12CC3CC(CC(C3)C1)C2 , please. 73.5 to 75 °C
